Assay: Toxicity in human erythrocytes assessed as hemolysis at 1.5 uM after 40 mins
Type: cell-based, Erythrocyte
Conditions: read-out: Activity
Where a SMILES comes first, the peptide text is derived from it.
Overview of reported hemolysis at 40 min, 1.5 µM across a group of compounds:
The response must be a number in % with no trailing unit.

Example cases with answers are listed next.
{"compound": "CC[C@H](C)[C@H](NC(=O)[C@H](CCCNC(=N)N)NC(=O)CNC(=O)[C@H](CC(C)C)NC(=O)[C@H](Cc1ccccc1)NC(=O)[C@H](CCCNC(=N)N)NC(=O)[C@H](CO)NC(=O)[C@H](Cc1ccccc1)NC(=O)[C@H](Cc1c[nH]c2ccccc12)NC(=O)[C@H](CCCNC(=N)N)NC(=O)[C@@H](NC(=O)[C@@H](N)Cc1ccccc1)C(C)C)C(=O)N[C@@H](CC(C)C)C(N)=O (H-FVRWFSRFLGRIL-NH2)", "observedProperty": "hemolysis at 40 min, 1.5 µM", "valueUnit": "%", "observedResult": 6}
{"compound": "CC[C@H](C)[C@H](NC(=O)[C@H](CCCNC(=N)N)NC(=O)CNC(=O)[C@H](CC(C)C)NC(=O)[C@H](Cc1ccccc1)NC(=O)[C@H](CCCCN)NC(=O)[C@H](CO)NC(=O)[C@H](Cc1ccccc1)NC(=O)[C@H](Cc1c[nH]c2ccccc12)NC(=O)[C@@H]1CCCN1C(=O)[C@@H](NC(=O)[C@@H](N)Cc1ccccc1)C(C)C)C(=O)N[C@@H](CC(C)C)C(N)=O (H-FVPWFSKFLGRIL-NH2)", "observedProperty": "hemolysis at 40 min, 1.5 µM", "valueUnit": "%", "observedResult": 4.5}

Next compound, hemolysis at 40 min, 1.5 µM to be filled in.
The measured hemolysis at 40 min, 1.5 µM associated with CC[C@H](C)[C@H](NC(=O)[C@H](CCCNC(=N)N)NC(=O)CNC(=O)[C@H](CC(C)C)NC(=O)[C@H](Cc1ccccc1)NC(=O)[C@H](CCCCN)NC(=O)[C@H](CO)NC(=O)[C@H](Cc1ccccc1)NC(=O)[C@H](Cc1c[nH]c2ccccc12)NC(=O)[C@@H]1CCCN1C(=O)[C@H](CC(C)C)NC(=O)[C@@H](N)Cc1ccccc1)C(=O)N[C@@H](CC(C)C)C(N)=O (H-FLPWFSKFLGRIL-NH2) reads 4

###

System: Streptococcus pyogenes
Test: Antibacterial activity against Streptococcus pyogenes ATCC 21547 after 18 to 20 hrs by microbroth dilution method
Format: functional
Where a SMILES comes first, the peptide text is derived from it. [ ]: non-standard residue; d: D form. Orn = NCCC[C@H](N)C(=O)O
Overview of reported MIC across a group of molecules:
The response must be a number in µM with no trailing unit.

Example cases with answers are listed next.
{"molecule": "CC(C)C[C@H](NC(=O)[C@H](CC(C)C)NC(=O)[C@H](CCCNC(=N)N)NC(=O)CNC(=O)[C@H](CC(C)C)NC(=O)[C@H](CC(C)C)NC(=O)[C@H](CCCCN)NC(=O)[C@H](CO)NC(=O)[C@H](CC(C)C)NC(=O)[C@H](Cc1c[nH]c2ccccc12)NC(=O)[C@H](CCC(N)=O)NC(=O)[C@H](CC(C)C)NC(=O)[C@@H](N)CC(C)C)C(N)=O (H-LLQWLSKLLGRLL-NH2)", "observedProperty": "MIC", "observedResult": 6}
{"molecule": "CC[C@H](C)[C@H](NC(=O)[C@H](CCCNC(=N)N)NC(=O)[C@H]1CCCN1C(=O)[C@H](CC(C)C)NC(=O)[C@H](Cc1ccccc1)NC(=O)[C@H](CCCCN)NC(=O)[C@H](CO)NC(=O)[C@H](Cc1ccccc1)NC(=O)[C@H](Cc1c[nH]c2ccccc12)NC(=O)[C@@H]1CCCN1C(=O)[C@@H](NC(=O)[C@@H](N)Cc1ccccc1)C(C)C)C(=O)N[C@@H](CC(C)C)C(N)=O", "observedProperty": "MIC", "observedResult": 24}
{"molecule": "CC[C@H](C)[C@H](NC(=O)[C@H](CCCNC(=N)N)NC(=O)CNC(=O)[C@H](CC(C)C)NC(=O)[C@H](Cc1ccccc1)NC(=O)[C@H](CCCCN)NC(=O)[C@H](CO)NC(=O)[C@H](Cc1ccccc1)NC(=O)[C@H](Cc1c[nH]c2ccccc12)NC(=O)[C@@H]1CCCN1C(=O)[C@@H](NC(=O)[C@@H](N)Cc1ccccc1)C(C)C)C(=O)N[C@@H](CC(C)C)C(N)=O (H-FVPWFSKFLGRIL-NH2)", "observedProperty": "MIC", "observedResult": 6}
{"molecule": "CC[C@H](C)[C@H](NC(=O)[C@H](CCCN)NC(=O)CNC(=O)[C@H](CC(C)C)NC(=O)[C@H](Cc1ccccc1)NC(=O)[C@H](CCCCN)NC(=O)[C@H](CO)NC(=O)[C@H](Cc1ccccc1)NC(=O)[C@H](Cc1c[nH]c2ccccc12)NC(=O)[C@@H]1CCCN1C(=O)[C@@H](NC(=O)[C@@H](N)Cc1ccccc1)C(C)C)C(=O)N[C@@H](CC(C)C)C(N)=O (H-FVPWFSKFLG[Orn]IL-NH2)", "observedProperty": "MIC", "observedResult": 6}

Next molecule, MIC to be filled in.
The measured MIC associated with CC[C@H](C)[C@H](NC(=O)[C@H](CCCNC(=N)N)NC(=O)CNC(=O)[C@H](CC(C)C)NC(=O)[C@H](Cc1ccccc1)NC(=O)[C@H](CCCCN)NC(=O)[C@H](CO)NC(=O)[C@H](Cc1ccccc1)NC(=O)[C@H](Cc1c[nH]c2ccccc12)NC(=O)[C@H](CCCNC(=N)N)NC(=O)[C@@H](NC(=O)[C@@H](N)Cc1ccccc1)C(C)C)C(=O)N[C@@H](CC(C)C)C(N)=O (H-FVRWFSKFLGRIL-NH2) reads 3

###

Test system: Priestia megaterium
Experiment: Antibacterial activity against Bacillus megaterium Bm11 after 18 to 20 hrs by microbroth dilution method
Assay type: functional
Where a SMILES comes first, the peptide text is derived from it. [ ]: non-standard residue; d: D form. Orn = NCCC[C@H](N)C(=O)O
observedProperty: MIC (µM)
The response must be a number in µM with no trailing unit.

Example cases with answers are listed next.
{"compound": "CC[C@H](C)[C@H](NC(=O)[C@H](CCCNC(=N)N)NC(=O)CNC(=O)[C@H](CC(C)C)NC(=O)[C@H](Cc1ccccc1)NC(=O)[C@H](CCCCN)NC(=O)[C@H](CO)NC(=O)[C@H](Cc1ccccc1)NC(=O)[C@H](Cc1c[nH]c2ccccc12)NC(=O)[C@@H]1CCCN1C(=O)[C@@H](NC(=O)[C@@H](N)Cc1ccccc1)C(C)C)C(=O)N[C@@H](CC(C)C)C(N)=O (H-FVPWFSKFLGRIL-NH2)", "valueUnit": "µM", "MIC": 1.5}
{"compound": "CC(C)C[C@H](NC(=O)[C@H](CC(C)C)NC(=O)[C@H](CCCNC(=N)N)NC(=O)CNC(=O)[C@H](CC(C)C)NC(=O)[C@H](CC(C)C)NC(=O)[C@H](CCCCN)NC(=O)[C@H](CO)NC(=O)[C@H](CC(C)C)NC(=O)[C@H](Cc1c[nH]c2ccccc12)NC(=O)[C@H](CCC(N)=O)NC(=O)[C@H](CC(C)C)NC(=O)[C@@H](N)CC(C)C)C(N)=O (H-LLQWLSKLLGRLL-NH2)", "valueUnit": "µM", "MIC": 1.5}
{"compound": "CC[C@H](C)[C@H](NC(=O)[C@H](CCCNC(=N)N)NC(=O)[C@@H]1CCCN1C(=O)[C@H](CC(C)C)NC(=O)[C@H](Cc1ccccc1)NC(=O)[C@H](CCCCN)NC(=O)[C@H](CO)NC(=O)[C@H](Cc1ccccc1)NC(=O)[C@H](Cc1c[nH]c2ccccc12)NC(=O)[C@@H]1CCCN1C(=O)[C@@H](NC(=O)[C@@H](N)Cc1ccccc1)C(C)C)C(=O)N[C@@H](CC(C)C)C(N)=O", "valueUnit": "µM", "MIC": 3}
{"compound": "CC[C@H](C)[C@H](NC(=O)[C@H](CCCNC(=N)N)NC(=O)[C@H](CC(C)C)NC(=O)[C@H](CC(C)C)NC(=O)[C@H](Cc1ccccc1)NC(=O)[C@H](CCCCN)NC(=O)[C@H](CO)NC(=O)[C@H](Cc1ccccc1)NC(=O)[C@H](Cc1c[nH]c2ccccc12)NC(=O)[C@H](CCC(N)=O)NC(=O)[C@@H](NC(=O)[C@@H](N)Cc1ccccc1)C(C)C)C(=O)N[C@@H](CC(C)C)C(N)=O (H-FVQWFSKFLLRIL-NH2)", "valueUnit": "µM", "MIC": 48}
{"compound": "CC[C@H](C)[C@H](NC(=O)[C@H](CCCN)NC(=O)CNC(=O)[C@H](CC(C)C)NC(=O)[C@H](Cc1ccccc1)NC(=O)[C@H](CCCCN)NC(=O)[C@H](CO)NC(=O)[C@H](Cc1ccccc1)NC(=O)[C@H](Cc1c[nH]c2ccccc12)NC(=O)[C@H](CCC(N)=O)NC(=O)[C@@H](NC(=O)[C@@H](N)Cc1ccccc1)C(C)C)C(=O)N[C@@H](CC(C)C)C(N)=O (H-FVQWFSKFLG[Orn]IL-NH2)", "valueUnit": "µM", "MIC": 1.5}

Next compound, MIC to be filled in.
The measured MIC associated with CC[C@H](C)[C@H](NC(=O)[C@H](CCCNC(=N)N)NC(=O)CNC(=O)[C@H](CC(C)C)NC(=O)[C@H](Cc1ccccc1)NC(=O)[C@H](CCCCN)NC(=O)[C@H](CO)NC(=O)[C@H](Cc1ccccc1)NC(=O)[C@H](Cc1c[nH]c2ccccc12)NC(=O)[C@@H]1CCCN1C(=O)[C@H](CC(C)C)NC(=O)[C@@H](N)Cc1ccccc1)C(=O)N[C@@H](CC(C)C)C(N)=O (H-FLPWFSKFLGRIL-NH2) reads 3

These entries and their values trace back to ChEMBL document CHEMBL1687913.
